From: patent US4594425A

Tested on: synthesis of 5-HETE by rat glycogen-elicited polymorphonuclear leukocytes (lipoxygenase)
Experiment: inhibition of 5-HETE synthesis by rat glycogen-elicited polymorphonuclear leukocytes
Type: cell-based, rat (Wistar)
Conditions: Leukocyte; rat PMN, A23187 10 μM, [14C] arachidonic acid, 37° C.; read-out: 50% Inhibitory Concentration (IC50) 5-HETE
Description: This is especially true with respect to 5,12-diHETE, which is also denoted as LTB4 [see Ford-Hitchinson, J. Roy. Soc. Med., 74, 831 (1981)]. […] Peritoneal PMN are obtained from female Wistar rats (150-250 g) that received an i.p. injection of 6% glycogen (10 ml). […] After chromatography, the areas associated with 5-HETE and 5,12-diHETE standards are identified by autoradiography, cut out and quantitated by liquid scintillation. […]
TEST_READOUT: log10(IC50) (log10 of the value in µM)
Values reflect log10 of reported IC50 (µM).

COC(=O)CCC(=O)Nc1cccc(OCc2nc3ccccc3o2)c1
1.84
COC(=O)CCC(=O)N(O)c1cccc(OCc2nc3ccccc3s2)c1
-0.44
COC(=O)CCC(=O)Nc1cccc(OCc2nc3ccccc3s2)c1
1.20

I have 2 compounds here; please give me log10(IC50) for each one.
1. COC(=O)CCC(=O)Nc1cccc(OCc2cc3ccccc3o2)c1
2. NC1=NN(c2cccc(C(F)(F)F)c2)CC1 [BW755C, reference compound]

Result string:
1.25
1.63

###

system: LTD4 induced bronchoconstriction; test: in vivo inhibition of bronchospasm induced in guinea pigs by exogenously administered LTD4; parameters: species or system guinea pig (male Hartley); settings: 50 mg/kg intraduodenal, 10 minutes before LTD4; average of 6 experiments; 3 min.
TEST_READOUT: % Inhibition (Statistical Average), Overflow Volume at 3 min.

// below: answered compounds
COC(=O)CCC(=O)Nc1cccc(OCc2nc3ccccc3n2C)c1 [Example 2b]
82%
COC(=O)CCC(=O)N(O)c1cccc(OCc2nc3ccccc3s2)c1 [Example 6]
78%
COC(=O)CC(=O)Nc1cccc(OCc2nc3ccccc3n2C)c1 [Example 2d]
62%
COC(=O)CC(=O)Nc1cccc(OCc2nc3ccccc3s2)c1 [Example 2c]
77%

Proceeding to the next compound to report its % Inhibition (Statistical Average), Overflow Volume at 3 min..
Query string: Given COC(=O)CCC(=O)Nc1cccc(OCc2nc3ccccc3s2)c1 [Example 1] , state its recorded % Inhibition (Statistical Average), Overflow Volume at 3 min..
Result string: 33%
